- Test system: A. cantonensis L1 larvae
- assay_notes: Anthelmintic activity against A. cantonensis first-stage larvae (motility/viability, 24 h)
- Type: cell-based, Angiostrongylus cantonensis
- stated_conditions: Angiostrongylus cantonensis, 24 h, read-out: A. cantonensis EC50 (μM ± SEM) L1
- Experimental: Larvae were washed three times in RPMI 1640 medium supplemented with 100 U/mL penicillin and 100 μg/mL streptomycin. Approximately 50 larvae were allocated into individual wells of a 96-well plate containing 200 μL of final volume of RPMI medium. […] Approximately 50 larvae were transferred to each well of a 96-well plate containing RPMI medium. […] Larval viability was monitored at 0 and 24 h post-treatment. […] Assays were performed in triplicate and repeated three times.
experimental_readout: EC50
I'd appreciate it if you included the unit after the number.

Query: For CCCSc1ccc2nc(NC(=O)OC)[nH]c2c1 [albendazole, reference compound] , what is its reported EC50?
Response: 14.2 µM
